Kindly state pKi for each of the entries shown.
Kindly note that pKi refers to -log10 of the concentration in mol/L and answer with the value alone.

Request: I'm curious: which pKi was measured for CN(C)c1nc(NC(=O)Nc2ccc(S(N)(=O)=O)cc2)nc(Nc2ccc(Cl)cc2)n1 tested on UniProtKB Q16790?
Result: 7.42

Request: Provide value of pKi for this record tested with UniProtKB Q16790: NS(=O)(=O)c1ccc(NC(=O)Nc2nc(Cl)nc(Nc3ccc(S(N)(=O)=O)cc3)n2)cc1
Result: 7.93

Request: # query: pKi | item NS(=O)(=O)c1ccc(NC(=O)Nc2nc(Nc3ccccc3)nc(N3CCOCC3)n2)cc1 | system: UniProtKB Q16790
Result: 7.43

Request: Write down the reported pKi of NS(=O)(=O)c1ccc(NC(=O)Nc2nc(Nc3ccc(S(N)(=O)=O)cc3)nc(N3CCOCC3)n2)cc1 , test system: UniProtKB Q16790.
Result: 7.60

Request: Reported pKi for UniProtKB Q16790, given NS(=O)(=O)c1ccc(NC(=O)Nc2nc(Nc3ccccc3)nc(N3CCCCC3)n2)cc1 ?
Result: 7.49

Request: State its pKi on UniProtKB Q16790: CN(C)c1nc(NC(=O)Nc2ccc(S(N)(=O)=O)cc2)nc(Nc2ccc(S(N)(=O)=O)cc2)n1
Result: 7.84
